Property: IC50; scope: individual compounds
Assay: Inhibitory activity against porcine pancreatic elastase(PPE)

C[C@@H](NC(=O)N1C(=O)CC1SCc1ccncc1)c1ccccc1 (stereo not given in full)
21 µM
CC[C@@H](NC(=O)N1C(=O)[C@@H](C)[C@@H]1SCc1ccccn1)c1ccccc1
0.73 µM
C[C@@H](NC(=O)N1C(=O)CC1SCc1cccnc1)c1ccccc1 (stereo not given in full)
65 µM
O=C1CC(SCc2ccccn2)N1C(=O)N[C@H](CO)c1ccccc1 (stereo not given in full)
> 75 µM

Look up IC50 of CC(C)C[C@@H](COC1CC(=O)N1C(=O)NCc1ccccc1)NC(=O)[C@@H](NC(=O)OC(C)(C)C)C(C)(C)C (stereo not given in full) and report it.
> 75 µM
